The values you see were collected from ChEMBL document CHEMBL4400545.

For each record, write down the corresponding Activity.
# target or system: Sodium- and chloride-dependent GABA transporter 1 (Mus musculus)
# protocol details: Inhibition of mouse GAT-1 assessed as percentage of remaining specific binding of NO711 at 1 uM after 4 hrs by LC-ESI-MS/ms analysis relative to control
Answers are plain numbers, in %.

# molecule, target or system, numeric readout
measured = [
    ("O=C(O)C1CCCN(CCO/N=C/c2ccc(Br)cn2)C1 (racemic)", "Sodium- and chloride-dependent GABA transporter 1 (Mus musculus)", 71),
    ("O=Cc1cccnc1-c1ccccc1Cl", "Sodium- and chloride-dependent GABA transporter 1 (Mus musculus)", 97),
    ("O=C(O)C1CCCN(CCO/N=C/c2cccc3c2OCO3)C1 (racemic)", "Sodium- and chloride-dependent GABA transporter 1 (Mus musculus)", 32),
    ("O=C(O)C1CCCN(CCO/N=C/c2ccccc2-c2ccc(Cl)cc2F)C1 (racemic)", "Sodium- and chloride-dependent GABA transporter 1 (Mus musculus)", 24),
    ("O=C(O)C1CCCN(CCO/N=C/c2ccccc2OCc2ccccc2)C1 (racemic)", "Sodium- and chloride-dependent GABA transporter 1 (Mus musculus)", 29),
]

Quick one: give me Activity for each item below, same order please.
1. O=C(O)C1CCCN(CCO/N=C/c2cccc3ccccc23)C1 (racemic)
2. O=Cc1ccccn1
3. O=C(O)C1CCCN(CCO/N=C/c2ccccc2-c2ccc(F)cc2F)C1 (racemic)
4. O=Cc1ccccc1Oc1ccccc1

Reply:
1. 61
2. 85
3. 17
4. 88

###

# target or system: Sodium- and chloride-dependent GABA transporter 1 (Mus musculus, UniProt P31648)
# protocol details: Binding affinity to mouse GAT-1 expressed in HEK293 cells after 4 hrs in presence of NO711 by LC-ESI-MS/ms analysis
attribute measured: Ki
The reply should consist of the numeric value with the unit placed after it.

# compound, target or system, Ki
rows = [
    ("O=C(O)C1CCCN(CCO/N=C/c2cc(F)ccc2-c2ccc(Cl)cc2Cl)C1 (racemic)", "Sodium- and chloride-dependent GABA transporter 1 (Mus musculus, UniProt P31648)", "17 nM"),
    ("O=C(O)[C@@H]1CCCN(CCO/N=C/c2ccccc2-c2ccc(F)cc2Cl)C1", "Sodium- and chloride-dependent GABA transporter 1 (Mus musculus, UniProt P31648)", "2.82 nM"),
    ("O=C(O)C1CCCN(CCO/N=C/c2ccccc2-c2ccc(Cl)cc2Cl)C1 (racemic)", "Sodium- and chloride-dependent GABA transporter 1 (Mus musculus, UniProt P31648)", "10.5 nM"),
    ("Cc1ccsc1C(=CCCN1CCC[C@@H](C(=O)O)C1)c1sccc1C", "Sodium- and chloride-dependent GABA transporter 1 (Mus musculus, UniProt P31648)", "55 nM"),
]

Hi there! I need Ki for each item below, if you can.
1. O=C(O)C1CCCN(CCO/N=C/c2ccccc2-c2ccc(F)cc2F)C1 (racemic)
2. O=C(O)C1=CCCN(CCO/N=C/c2ccccc2-c2ccc(F)cc2F)C1
3. O=C(O)[C@@H]1CCCN(CCO/N=C/c2ccccc2-c2ccc(F)cc2F)C1
4. O=C(O)C1CCCN(CCO/N=C/c2sccc2-c2ccc(Cl)cc2Cl)C1 (racemic)
5. O=C(O)[C@@H]1CCCN(CCO/N=C/c2ccccc2-c2ccc(Cl)cc2Cl)C1
6. O=C(O)C1=CCCN(CCO/N=C/c2ccccc2-c2ccc(Cl)cc2Cl)C1
7. O=C(O)C1CCCN(CCO/N=C/c2ccccc2-c2ccc(F)cc2Cl)C1 (racemic)

Reply:
1: 13.8 nM; 2: 4.47 nM; 3: 5.89 nM; 4: 11.7 nM; 5: 5.89 nM; 6: 5.13 nM; 7: 10 nM

###

# Test system: Sodium- and chloride-dependent betaine transporter (Mus musculus)
# protocol details: Inhibition of mouse GAT-2 expressed in HEK293 cells assessed as remaining [3H]GABA uptake at 100 uM preincubated for 25 mins followed by [3H]GABA addition and measured after 10 mins by scintillation counting analysis
For each of the compounds below, state its Activity.
Answers are plain numbers, in %.

Consider the worked cases shown below.
# compound, numeric readout
records = [
    ("O=C(O)[C@@H]1CCCN(CCO/N=C/c2ccccc2-c2ccc(F)cc2Cl)C1", 50.1),
    ("O=C(O)C1CCCN(CCO/N=C/c2ccccc2-c2ccc(F)cc2F)C1 (racemic)", 78.3),
    ("O=C(O)[C@@H]1CCCN(CCO/N=C/c2ccccc2-c2ccc(F)cc2F)C1", 56.6),
]

Query: # get_value(readout= Activity, system= Sodium- and chloride-dependent betaine transporter (Mus musculus)) for O=C(O)C1CCCN(CCO/N=C/c2ccccc2-c2ccc(F)cc2Cl)C1 (racemic)
Reply: 61.6

###

# target or system: Sodium- and chloride-dependent GABA transporter 1 (Mus musculus)
# protocol details: Inhibition of mouse GAT-1 assessed as percentage of remaining specific binding of NO711 at 100 nM after 4 hrs by LC-ESI-MS/ms analysis relative to control
Note to self: use fulfilled only for Activity readings below 20%; a reading exactly at 20% still gets not fulfilled.

Query: Record O=C(O)C1CCCN(CCO/N=C/c2cc(F)ccc2-c2ccccc2Cl)C1 (racemic) : is its Activity strictly below 20%?
Reply: fulfilled

Query: Query O=C(O)C1CCCN(CCO/N=C/c2ccccc2-c2ccc(F)cc2F)C1 (racemic) next
Reply: fulfilled

Query: Please answer likewise for O=C(O)C1CCCN(CCO/N=C/c2ccccc2-c2c(F)cccc2F)C1 (racemic)
Reply: fulfilled

###

Exercise: state measured Activity for each of the molecules provided.
# target or system: Sodium- and chloride-dependent GABA transporter 1 (Mus musculus) (UniProt P31648)
# protocol details: Inhibition of mouse GAT-1 assessed as percentage of remaining specific binding of NO711 at 1 uM after 4 hrs by LC-ESI-MS/ms analysis relative to control
Give bare numbers, in %.

# annotated cases, reported Activity shown
# molecule, Activity [%]
records = [
    ("O=C(O)C1CCCN(CCO/N=C/c2cccnc2-c2ccccc2Cl)C1 (racemic)", 33),
    ("O=Cc1cc2c(cc1-c1ccccc1Cl)OCO2", 92),
    ("O=Cc1ccc([N+](=O)[O-])cc1", 92),
]

Each of the following entries comes with a recorded value; kindly state Activity for each.
1. O=C(O)C1CCCN(CCO/N=C/c2cccc([N+](=O)[O-])c2)C1 (racemic)
2. O=Cc1cccnc1-c1ccc(Cl)cc1
3. O=C(O)C1CCCN(CCO/N=C/c2ccccc2-c2cc(F)ccc2F)C1 (racemic)
4. O=C(O)C1CCCN(CCO/N=C/c2ccc3ccccc3n2)C1 (racemic)
5. O=C(O)C1CCCN(CCO/N=C/c2c[nH]nc2-c2ccc(F)cc2)C1 (racemic)
6. O=C(O)C1CCCN(CCO/N=C/c2cc3c(cc2-c2ccc(Cl)cc2Cl)OCO3)C1 (racemic)

Reply:
[60, 87, 71, 62, 7, 19]

Query: Name the recorded Activity for O=C(O)C1CCCN(CCO/N=C/c2ccc([N+](=O)[O-])cc2)C1 (racemic) .
Reply: 60

###

# target or system: UniProt P31648
# protocol details: Inhibition of mouse GAT-1 assessed as percentage of remaining specific binding of NO711 at 100 nM after 4 hrs by LC-ESI-MS/ms analysis relative to control
For each entry below, report its Activity value.

Solved entries:
# compound, Activity
measured = [
    ("O=C(O)C1CCCN(CCO/N=C/c2ccc(-c3ccccc3)cc2)C1 (racemic)", "20%"),
    ("O=C(O)C1CCCN(CCO/N=C/c2cc(F)ccc2-c2ccccc2F)C1 (racemic)", "16%"),
    ("O=C(O)C1CCCN(CCO/N=C/c2cccc(-c3ccccc3)c2)C1 (racemic)", "20%"),
]

// switching to the query compound
Query: Need Activity of O=C(O)C1CCCN(CCO/N=C/c2ccccc2-c2cccc(F)c2F)C1 (racemic) , thanks.
Reply: 17%

###

# target or system: Sodium- and chloride-dependent GABA transporter 1 (Mus musculus)
# protocol details: Inhibition of mouse GAT-1 expressed in HEK293 cells assessed as decrease in [3H]GABA uptake preincubated for 25 mins followed by [3H]GABA addition and measured after 4 mins by scintillation counting analysis
Provide the reported IC50 of each item.
Numbers only, in nM.

# compound, value unit, IC50
data = [
    ("O=C(O)[C@@H]1CCCN(CCO/N=C/c2ccccc2-c2ccc(F)cc2F)C1", "nM", 102),
    ("O=C(O)C1CCCN(CCO/N=C/c2cc(F)ccc2-c2ccc(Cl)cc2Cl)C1 (racemic)", "nM", 170),
]

Lab note: each compound below needs its IC50 filled in.
1. O=C(O)C1CCCN(CCO/N=C/c2ccccc2-c2ccc(Cl)cc2Cl)C1 (racemic)
2. O=C(O)C1CCCN(CCO/N=C/c2ccccc2-c2ccc(F)cc2Cl)C1 (racemic)
3. O=C(O)C1=CCCN(CCO/N=C/c2ccccc2-c2ccc(F)cc2F)C1
4. O=C(O)C1CCCN(CCO/N=C/c2sccc2-c2ccc(Cl)cc2Cl)C1 (racemic)
5. O=C(O)[C@@H]1CCCN(CCO/N=C/c2ccccc2-c2ccc(F)cc2Cl)C1
6. O=C(O)C1=CCCN(CCO/N=C/c2ccccc2-c2ccc(Cl)cc2Cl)C1

Reply:
[38.9, 66.1, 56.2, 28.2, 32.4, 5.37]

Hi! Can you tell me IC50 for each of these compounds?
1. O=C(O)[C@@H]1CCCN(CCO/N=C/c2ccccc2-c2ccc(Cl)cc2Cl)C1
2. O=C(O)C1CCCN(CCO/N=C/c2ccccc2-c2ccc(F)cc2F)C1 (racemic)

Reply:
1. 60.3
2. 85.1
